Listed next: entries and their corresponding half-life.
target: T1, HLA-B08:01 (human)
T1 construct: Stability assay: E. coli-expressed biotinylated heavy chain with 125I-labelled b2m; MS: BAP-tagged HLA in HEK293T cells; Treated as one molecule
experiment_description: pMHC-I dissociation, 125I-b2m, 37C; average of 2
quantity_measured: half-life (h)

INSERT INTO assay_data (binder, numeric_readout) VALUES
  ('FATLQRSSL', 0),
  ('FLKAESKIMF', 0),
  ('ESKIMFATL', 1.3),
  ('MFATLQRSSL', 0),
  ('FLKAESKIM', 1.2),
  ('LHFCRSSIM', 0),
  ('IMKPKRDGYM', 0.4);
